# Assayed system: DNA polymerase beta P242R (rs3136797) (Homo sapiens, UniProt P06746 1-335, P242R)
# Assay overview: EMSA; EMSA as described previously (ref 34); buffer, salt, pH and temperature not given in the material
Quantity measured: Kd (nM)
Provide only the numeric value, understood in nM.

Assign Kd to the following record: 1-bp gapped DNA (dsDNA, 5' phosphate on downstream oligo (S8)) DNA 1: GCCTCGCAGCCGTCCAACCAAC DNA 2: CAACCTCGATCCAATGCCGTCC DNA 3: GGACGGCATTGGATCGAGGTTGAGTTGGTTGGACGGCTGCGAGGC
5
